From: ChEMBL document CHEMBL5316313

ASSAY TARGET: beta-catenin-B-cell lymphoma 9 protein complex (Homo sapiens)
Sequence (P35222 whole entry): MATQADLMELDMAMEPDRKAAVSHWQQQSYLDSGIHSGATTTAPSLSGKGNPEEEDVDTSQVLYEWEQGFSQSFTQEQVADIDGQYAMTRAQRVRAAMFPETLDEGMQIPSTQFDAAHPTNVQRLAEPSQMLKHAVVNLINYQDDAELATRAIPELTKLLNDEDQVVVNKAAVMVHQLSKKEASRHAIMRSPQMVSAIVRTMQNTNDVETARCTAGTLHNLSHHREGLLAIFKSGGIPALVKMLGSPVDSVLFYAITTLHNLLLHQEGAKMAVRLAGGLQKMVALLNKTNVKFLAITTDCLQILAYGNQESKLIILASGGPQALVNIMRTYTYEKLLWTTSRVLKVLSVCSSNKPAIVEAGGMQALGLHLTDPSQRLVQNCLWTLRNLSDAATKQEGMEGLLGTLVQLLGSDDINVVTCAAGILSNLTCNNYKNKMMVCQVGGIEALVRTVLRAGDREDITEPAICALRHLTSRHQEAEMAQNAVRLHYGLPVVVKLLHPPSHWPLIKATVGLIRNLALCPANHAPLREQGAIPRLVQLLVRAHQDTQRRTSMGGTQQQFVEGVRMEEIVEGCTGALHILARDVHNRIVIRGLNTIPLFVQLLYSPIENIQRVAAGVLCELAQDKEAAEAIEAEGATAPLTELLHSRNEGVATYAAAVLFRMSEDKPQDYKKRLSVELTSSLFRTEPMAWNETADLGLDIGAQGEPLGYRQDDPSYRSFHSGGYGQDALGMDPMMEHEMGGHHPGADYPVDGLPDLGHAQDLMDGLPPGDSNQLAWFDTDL
Sequence (O00512 whole entry): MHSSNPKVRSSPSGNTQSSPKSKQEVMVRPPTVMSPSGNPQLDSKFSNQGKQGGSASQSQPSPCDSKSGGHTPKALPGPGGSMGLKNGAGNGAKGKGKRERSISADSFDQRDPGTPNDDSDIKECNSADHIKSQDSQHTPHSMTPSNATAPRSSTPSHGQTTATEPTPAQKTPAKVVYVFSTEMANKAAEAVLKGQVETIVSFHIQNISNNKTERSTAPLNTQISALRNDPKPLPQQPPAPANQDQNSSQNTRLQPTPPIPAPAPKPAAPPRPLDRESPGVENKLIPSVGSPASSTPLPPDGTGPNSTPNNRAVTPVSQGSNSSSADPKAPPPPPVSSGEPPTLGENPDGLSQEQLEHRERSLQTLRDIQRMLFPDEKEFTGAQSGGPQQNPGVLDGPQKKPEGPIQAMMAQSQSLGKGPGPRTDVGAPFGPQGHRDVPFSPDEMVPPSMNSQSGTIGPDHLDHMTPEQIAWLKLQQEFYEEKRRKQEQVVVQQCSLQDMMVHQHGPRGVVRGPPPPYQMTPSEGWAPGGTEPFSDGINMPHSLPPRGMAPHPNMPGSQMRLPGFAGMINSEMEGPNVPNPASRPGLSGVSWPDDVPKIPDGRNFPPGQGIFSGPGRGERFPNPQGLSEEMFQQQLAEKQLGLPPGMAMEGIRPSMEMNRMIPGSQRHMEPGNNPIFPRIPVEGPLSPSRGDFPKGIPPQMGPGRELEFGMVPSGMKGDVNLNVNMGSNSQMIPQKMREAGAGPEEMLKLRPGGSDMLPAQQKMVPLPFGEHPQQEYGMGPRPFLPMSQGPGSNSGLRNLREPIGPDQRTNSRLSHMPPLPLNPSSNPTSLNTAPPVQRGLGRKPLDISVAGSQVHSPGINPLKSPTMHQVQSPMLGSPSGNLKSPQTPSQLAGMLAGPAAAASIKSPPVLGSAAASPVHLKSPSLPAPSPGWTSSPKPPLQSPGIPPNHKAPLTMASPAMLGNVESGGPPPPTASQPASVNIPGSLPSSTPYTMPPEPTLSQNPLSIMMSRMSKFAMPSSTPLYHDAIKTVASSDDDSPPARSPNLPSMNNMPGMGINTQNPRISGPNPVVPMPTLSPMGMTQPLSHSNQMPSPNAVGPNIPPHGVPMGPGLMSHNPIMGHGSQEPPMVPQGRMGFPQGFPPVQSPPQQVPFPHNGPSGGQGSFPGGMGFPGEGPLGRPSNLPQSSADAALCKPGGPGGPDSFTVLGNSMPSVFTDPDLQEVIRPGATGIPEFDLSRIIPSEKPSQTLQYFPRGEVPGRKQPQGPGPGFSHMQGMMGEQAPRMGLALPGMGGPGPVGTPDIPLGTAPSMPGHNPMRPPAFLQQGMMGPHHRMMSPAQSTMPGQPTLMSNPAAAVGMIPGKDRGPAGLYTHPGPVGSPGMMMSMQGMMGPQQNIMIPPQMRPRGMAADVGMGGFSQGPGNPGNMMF
PROTOCOL DESCRIPTION: Inhibition of N-terminal His6-tagged full-length recombinant beta-catenin (1 to 781 residues) (unknown origin) expressed in Escherichia coli BL21 DE3/N-terminal FAM tagged BCL9 HD2(350 to 375 residues) (unknown origin) protein-protein interaction assessed as inhibition constant incubated for 3 hrs by competitive fluorescence polarization assay
ASSAY ENDPOINT: pIC50
Worth noting: pIC50 values are minus log10 of concentrations stated in mol/L.

CC(C)c1ccc(-c2cccc(S(=O)(=O)N3CCCC(c4cccc(OC(C)(C)C(=O)NCc5ccccc5)c4)C3)c2)cc1 (centres undefined) : 5.42
Cc1ccc(-c2cccc(S(=O)(=O)N3CCCC(c4cccc(OC(C)(C)C(=O)O)c4)C3)c2)cc1C (centres undefined) : 5.33
CC(C)(Oc1cccc(C2CCCN(S(=O)(=O)c3cccc(-c4ccc5ccsc5c4)c3)C2)c1)C(=O)O (centres undefined) : 5.49

Let's switch to this molecule now.
Item under review: CC(C)(Oc1cccc(C2CCCN(S(=O)(=O)c3cccc(-c4ccsc4)c3)C2)c1)C(=O)O (centres undefined) . Reported pIC50?
5.40
